System: OVCAR-4 ovarian
protocol summary: NCI-60 one-dose screen, 48 h
measurement conditions: 10 µM
This is part of a sample that, as a whole, favours compounds with a hit. Of some 83,000 tested, about 20% had one in any assay. Calls of active or inactive are those of the source. Rule for the calls: active = growth percent below 10; inactive = the rest.
Classes used: true (1) = active, false (0) = inactive

INSERT INTO measurements (molecule, target, assigned_class) VALUES
  ('CCCCCCCOc1cccc(/C=C2/C(=O)N=C3SCCCN32)c1', 'OVCAR-4 ovarian', 'false (0)'),
  ('CCOC(=O)Cn1nnc(-c2ccc(OCc3ccccc3F)cc2)n1', 'OVCAR-4 ovarian', 'false (0)'),
  ('C[n+]1c(/C=C/c2c[nH]c3ccccc23)ccc2ccccc21', 'OVCAR-4 ovarian', 'false (0)'),
  ('COc1ccc(-c2nnc(COc3ccc(NC(=O)Nc4ccccc4)cc3F)o2)cc1', 'OVCAR-4 ovarian', 'false (0)'),
  ('CCC(CCNc1cc(OC)cc2cccnc12)CN1C(=O)c2ccccc2C1=O (stereo not given)', 'OVCAR-4 ovarian', 'false (0)'),
  ('Cc1cc(/C=C2\SC(=Nc3ccccc3)N(C3CCCC3)C2=O)c(C)n1-c1ccc(Cl)cc1', 'OVCAR-4 ovarian', 'true (1)'),
  ('COc1cc(C2=Nc3c/c(=C\c4c(O)[nH]c5ccc(Cl)cc45)ccc3=N2)cc(OC)c1OC', 'OVCAR-4 ovarian', 'true (1)'),
  ('O=C(Nc1ccc(Oc2ccc(Nc3nc4ccccc4s3)cc2)cc1)Nc1ccc(Cl)c(Cl)c1', 'OVCAR-4 ovarian', 'false (0)'),
  ('CCn1nc(-c2ccc(C(=O)OC)cc2)nc2c(=O)n(C)c(=O)nc1-2', 'OVCAR-4 ovarian', 'false (0)'),
  ('O=C(NCCCl)c1cc(Cl)cc(Cl)c1', 'OVCAR-4 ovarian', 'false (0)');

The measurements presented in this section are drawn from PubChem BioAssay (NCI).
